test system: 786-0 renal; test: NCI tumour cell line growth inhibition, 48 h
measured-property: TGI

Field: example entries. Status: answers known.
INSERT INTO measurements (compound, result) VALUES
  ('Cc1ccc(S(=O)(=O)Oc2ccc(OS(=O)(=O)c3ccc(C)cc3)c3c2C(=O)c2ccccc2C3=O)cc1', '> 100 µM'),
  ('CC(=O)OC1C(CCl)OC(N=[N+]=[N-])C(OC(C)=O)C1OC(C)=O (stereo not given)', '> 100 µM'),
  ('C=C1CC(Cn2cc(C)c(=O)[nH]c2=O)(c2ccc(-c3ccccc3)cc2)OC1=O (stereo not given)', '2.22 µM'),
  ('COC(=O)NN=C(c1ccc(Cl)cc1)c1ccc(Cl)cc1', '> 100 µM'),
  ('O=c1c2cc(Br)cc(Br)c2[nH]c(=S)n1-c1ccccc1', '> 100 µM');

[Q] Missing value: TGI, 786-0 renal, entry "Cc1cc(C)cc(Sc2c([N+](=O)[O-])ncn2C)c1" . Fill in?
[A] 76.8 µM

[Q] Now the same for "CCn1c(=O)ccc2ccc(N(CCO)CCO)nc21"
[A] > 100 µM

[Q] Now the same for "C=C(CS(=O)(=O)c1ccccc1)[P+](c1ccccc1)(c1ccccc1)c1ccccc1"
[A] 47.3 µM

[Q] Now the same for "O=C(CCc1ccc(O)c(O)c1)NCCc1cc(OCc2ccccc2)cc(OCc2ccccc2)c1"
[A] 40 µM

[Q] Now the same for Cc1ccc(-n2c(Cn3nnc(-c4cccnc4)n3)nn(C3OC(COC(=O)c4ccccc4)C(OC(=O)c4ccccc4)C3OC(=O)c3ccccc3)c2=S)cc1 (stereo not given)
[A] > 100 µM

[Q] Now the same for "O=C1c2ccccc2-c2c1c1ccccc1c(=O)n2CCCN1CCN(CCCn2c3c(c4ccccc4c2=O)C(=O)c2ccccc2-3)CC1"
[A] > 32 µM

[Q] Now the same for "COc1cc([C@@H]2c3cc4c(cc3[C@@H](O[C@@H]3O[C@@H]5CO[C@@H](c6cccs6)O[C@H]5[C@H](O)[C@H]3O)[C@H]3COC(=O)[C@H]23)OCO4)cc(OC)c1O"
[A] 1.34 µM

[Q] Now the same for "COC(=O)[C@@]1(C)CC[C@]2(C)CC[C@]3(C)C4=CC=C5C(=CC(=O)C(O)=C5C)[C@]4(C)CC[C@@]3(C)[C@@H]2C1"
[A] 0.315 µM

[Q] Now the same for "COc1ccc(Cc2cnc(NC(=O)c3sc4ccccc4c3Cl)s2)cc1"
[A] > 100 µM

[Q] Now the same for COc1ccc(C(C2C(=O)N(C)C(=O)N(C)C2=O)C(F)(F)C(=O)N(C)C)cc1 (stereo not given)
[A] > 100 µM

[Q] Now the same for "O=C1c2ccccc2C(=O)N1CCCCCCNOCCCN1C(=O)c2ccccc2C1=O"
[A] > 100 µM

[Q] Now the same for "CSc1nc2c(N)ncnc2n1C"
[A] > 100 µM

###

We begin with a simple list: items and their reported GI50.
tested on: NCI/ADR-RES ovarian; test: NCI tumour cell line growth inhibition, 48 h

Field: example entries. Status: answers known.
INSERT INTO results (structure, result) VALUES
  ('CC(=O)[O-].CC(=O)[O-].[NH2-].[Pt+2].c1ccncc1', '80 µM'),
  ('c1ccc(-c2nn(-c3ccccc3)[n+](-c3cccc4ccccc34)n2)cc1', '> 100 µM'),
  ('CCCN(CCC)CCCNC(=O)c1cc2c(-c3ccc(OC)c(OC)c3)nn(C)c2s1', '33.4 µM');

Please look at the following compound next.
[Q] Report GI50 for "CCOC(=O)c1c(C)n2c(=O)cc(C)c3c(OC(C)=O)c(OC(C)=O)cc1c32" please.
[A] 2.69 µM

###

test system: ACHN renal; experiment: NCI tumour cell line growth inhibition, 48 h
measured-property: GI50

Field: example entries. Status: answers known.
INSERT INTO assay_data (compound, measured_property, result) VALUES
  ('O=C1/C(=C\c2coc3ccccc3c2=O)c2ccccc2N1c1c(Cl)cccc1Cl', 'GI50', '4.14 µM'),
  ('CCOC(=O)C1=C(C)NC2SC(=O)/C(=C\c3ccccc3)N2C1c1ccccc1 (stereo not given)', 'GI50', '> 100 µM'),
  ('COC(=O)[C@H](CC(C)C)NC(=O)NC(=O)NC(=O)CI', 'GI50', '1.78 µM'),
  ('CN1CCN(Cc2ccc(NC(=O)c3ccc(C#N)c(C#Cc4cnc(N)c5ncccc45)c3)cc2C(F)(F)F)CC1', 'GI50', '1.69 µM');

Please look at the following compound next.
[Q] Missing value: GI50, ACHN renal, entry "c1ccc(-c2nn(-c3ccccc3)[n+](-c3cccc4ccccc34)n2)cc1" . Fill in?
[A] 12 µM

###

We begin with a simple list: items and their reported GI50.
system: SN12C renal; experiment: NCI tumour cell line growth inhibition, 48 h

INSERT INTO results (compound, subject_of_test, result) VALUES
  ('COc1cc([C@@H]2c3cc4c(cc3[C@@H](O[C@@H]3O[C@@H]5CO[C@@H](c6cccs6)O[C@H]5[C@H](O)[C@H]3O)[C@H]3COC(=O)[C@H]23)OCO4)cc(OC)c1O', 'SN12C renal', '166 nM'),
  ('OC(COc1cccc2ccccc12)CN1CCN(c2ccccc2)CC1 (stereo not given)', 'SN12C renal', '16400 nM'),
  ('CCCCN(CCCC)CCCN=c1nc2c(c(N)n1-c1ccccc1)c(=S)n(-c1ccccc1)c(=S)n2-c1ccccc1', 'SN12C renal', '1410 nM'),
  ('COc1ccc(C2=C(c3cc(OC)c(OC)c(OC)c3)C(=O)CC2)cc1', 'SN12C renal', '676 nM');

Please look at the following compound next.
[Q] Report GI50 for CC1=C([Se]CC(OC(=O)[C@@H](CO)NC(=O)OC(C)(C)C)C(=O)NC(C)(C)C)C(=O)c2ccccc2C1=O (stereo not given in full) please.
[A] 1850 nM

###

system: MCF7 breast; test: NCI tumour cell line growth inhibition, 48 h; in the data active = GI50 below about 0.43 µM; inactive = the rest
Would you mind answering with one of these outcomes? True (active), False (inactive)

Completed entries (count: 2):
INSERT INTO measurements (structure, subject_of_test, assigned_class) VALUES
  ('N#Cc1c(NC(=O)CN2CCOCC2)sc2c1CCCC2', 'MCF7 breast', 'False'),
  ('Nc1ccccc1NC(=O)c1ccc(CN2CCC/C(=C\c3cccc(Cl)c3)C2=O)cc1', 'MCF7 breast', 'True');

[Q] Given "C=C(C)[C@@H]1CCC2=C[C@@H](OC2=O)[C@@H](C(=C)C)C(=O)/C=C(/C)C(=O)C1" , state the outcome it received in this test.
[A] False

###

test system: MDA-N; assay: NCI tumour cell line growth inhibition, 48 h
We begin with a simple list: items and their reported TGI.

Field: example entries. Status: answers known.
INSERT INTO assay_data (molecule, subject_of_test, result) VALUES
  ('C=C1CC(Cn2cc(C)c(=O)[nH]c2=O)(c2ccc(-c3ccccc3)cc2)OC1=O (centres undefined)', 'MDA-N', '2.75 µM'),
  ('CCN1CC2=C(NC(=S)NC2c2cc(OC)c(OC)c(OC)c2)/C(=C/c2cc(OC)c(OC)c(OC)c2)C1 (centres undefined)', 'MDA-N', '> 100 µM'),
  ('N#CC(C#N)=C(N)/C(C#N)=C/c1cc(O)c(O)c(Br)c1', 'MDA-N', '> 100 µM'),
  ('O=S1(=O)CS(=O)(=O)OCCCO1', 'MDA-N', '> 100 µM');

[Q] Report TGI for "CSc1nc2c(N)ncnc2n1C" please.
[A] > 100 µM

[Q] Now the same for "O=C(OCC12CC3CC(CC(C3)C1)C2)c1ccc(NCc2cc(O)ccc2O)cc1"
[A] 16.7 µM

[Q] Now the same for "CC(=O)O[C@H]1CC[C@@]2(C)C(=CC[C@@H]3[C@@H]2CC[C@]2(C)C(=N/O)/C(=C/c4ccc([N+](=O)[O-])cc4)C[C@@H]32)C1"
[A] > 100 µM

[Q] Now the same for CCC1CC(=O)N(SCC(N)C(=O)O)C1=O (centres undefined)
[A] > 100 µM

[Q] Now the same for "O=C(NNC(=O)c1ccncc1)c1ccncc1"
[A] > 100 µM

[Q] Now the same for "Cc1ccc2c(c1)[nH]c(=S)n2C=C1C(=O)CC(C)(C)CC1=O"
[A] > 100 µM

[Q] Now the same for "COC(=O)/C=C1/N=C(N(C)/N=C/c2ccccc2)NC1=O"
[A] > 100 µM

###

tested on: NCI-H23 lung; experiment: NCI tumour cell line growth inhibition, 48 h
measured-property: TGI

Field: example entries. Status: answers known.
INSERT INTO measurements (compound, subject_of_test, result) VALUES
  ('N=C(N)n1[nH]c2c(c1=O)CCCC2', 'NCI-H23 lung', '> 100 µM'),
  ('COC(=O)C1CCC(Nc2cccc(C(F)(F)F)c2)=N1 (stereo not given)', 'NCI-H23 lung', '> 100 µM'),
  ('C[C@@H](NC(=O)OC1C=CC2(CC1)C(=O)N(C)c1ccccc12)c1cccc2ccccc12 (stereo not given in full)', 'NCI-H23 lung', '> 25 µM');

[Q] Report TGI for "NC(=S)N1N=C2c3ccccc3CC[C@H]2[C@@H]1c1cccs1" please.
[A] 87.9 µM

[Q] Now the same for "C#CCNC(=O)CC[C@]1(C)[C@H]2CC[C@@H]3[C@@H]([C@@](C)(O)CCC=C(C)C)CC[C@@]3(C)[C@]2(C)CC[C@H]1C(=C)C"
[A] > 100 µM
